# experimental-target: FGFR4 (GST-FGFR4(388-802)) (Homo sapiens (Human))
# Sequence (P22455 388-802): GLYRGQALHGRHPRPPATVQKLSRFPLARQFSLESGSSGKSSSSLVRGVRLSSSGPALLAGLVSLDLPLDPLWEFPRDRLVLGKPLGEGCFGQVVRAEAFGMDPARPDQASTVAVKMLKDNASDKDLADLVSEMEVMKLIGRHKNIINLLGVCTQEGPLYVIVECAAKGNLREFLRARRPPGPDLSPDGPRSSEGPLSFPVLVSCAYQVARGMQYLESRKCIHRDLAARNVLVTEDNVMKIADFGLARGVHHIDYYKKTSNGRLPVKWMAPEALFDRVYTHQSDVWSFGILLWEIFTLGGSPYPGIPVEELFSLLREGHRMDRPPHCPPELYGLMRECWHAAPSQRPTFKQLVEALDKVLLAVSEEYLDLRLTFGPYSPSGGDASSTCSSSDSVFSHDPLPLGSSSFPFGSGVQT
# assay-summary: In-vitro biochemical kinase assay for FGFR4 (Caliper microfluidic mobility shift)
# measurement-parameters: biochemical FGFR4 assay; read-out: Biochemical IC50
Output Yes for records whose IC50 is lower than 2 nM, No for records at or above 2 nM.

- given-smiles: "COCCNc1cc(NC(=O)N2CCCc3cc(-c4ccncc4)c(C=O)nc32)ncc1C#N"
  assigned-class: "No"
- given-smiles: "COC[C@H](C)Nc1cc(NC(=O)N2CCCc3cc(CN4CCCC4=O)c(C=O)nc32)ncc1C#N"
  assigned-class: "Yes"
- given-smiles: "N#Cc1cnc(NC(=O)N2CCCc3cc(CN4CC[C@@H](O)C4=O)c(C=O)nc32)cc1OCC(F)F"
  assigned-class: "No"
- given-smiles: "COc1nc(NC(=O)N2CCCc3cc(CN4CCN(C)CC4=O)c(C=O)nc32)ncc1C#N"
  assigned-class: "No"
- given-smiles: "COCCNc1cc(NC(=O)N2CCCc3cc(CN4CCNC(C)(C)C4=O)c(C=O)nc32)ncc1C#N"
  assigned-class: "Yes"

* * *

# experimental-target: Tel-FGFR4 (Homo sapiens (Human))
# Sequence (P22455 other isoform, or with tags, fused parts or gaps): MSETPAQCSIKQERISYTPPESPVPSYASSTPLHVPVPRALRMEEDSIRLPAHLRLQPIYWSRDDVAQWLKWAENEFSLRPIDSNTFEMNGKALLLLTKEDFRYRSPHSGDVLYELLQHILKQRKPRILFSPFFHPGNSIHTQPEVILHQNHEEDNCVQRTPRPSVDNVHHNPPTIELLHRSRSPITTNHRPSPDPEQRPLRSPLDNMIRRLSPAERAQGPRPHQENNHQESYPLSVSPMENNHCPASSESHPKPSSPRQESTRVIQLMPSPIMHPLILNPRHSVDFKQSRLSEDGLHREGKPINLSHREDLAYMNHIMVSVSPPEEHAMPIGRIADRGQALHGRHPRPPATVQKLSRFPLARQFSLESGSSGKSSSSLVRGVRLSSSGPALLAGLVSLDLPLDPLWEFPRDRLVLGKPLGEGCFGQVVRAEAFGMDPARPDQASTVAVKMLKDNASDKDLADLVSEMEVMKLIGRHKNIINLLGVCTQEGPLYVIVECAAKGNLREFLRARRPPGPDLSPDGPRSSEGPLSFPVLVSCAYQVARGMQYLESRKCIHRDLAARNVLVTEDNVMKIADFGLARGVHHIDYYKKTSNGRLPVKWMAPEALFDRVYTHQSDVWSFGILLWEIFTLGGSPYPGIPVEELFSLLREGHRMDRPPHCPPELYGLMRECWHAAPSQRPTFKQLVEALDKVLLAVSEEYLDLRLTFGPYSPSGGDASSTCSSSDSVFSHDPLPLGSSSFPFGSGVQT
# assay-summary: In vitro cellular kinase assay for FGFR4 (BaF3-Tel-FGFR4 cells, MSD capture ELISA of tyrosine phosphorylation)
# Format: cell-based
# measurement-parameters: Cellular BaF3 FGFR4 assay; read-out: Cellular IC50
Output Criterion met for records whose IC50 is lower than 10 nM, Criterion not met for records at or above 10 nM.

- compound: "CCOc1cc(NC(=O)N2CCCc3cc(CN4CCN(C)CC4=O)c(C=O)nc32)ncc1C#N"
  assigned-class: "Criterion met"
- compound: "CC(C)Oc1cc(NC(=O)N2CCCc3cc(CN4C[C@H](N(C)C)CC4=O)c(C=O)nc32)ncc1C#N"
  assigned-class: "Criterion met"
- compound: "CC(C)Nc1cc(NC(=O)N2CCCc3cc(CN(C)C(=O)CN(C)C)c(C=O)nc32)ncc1C#N"
  assigned-class: "Criterion not met"
- compound: "CO[C@@H](C)COc1cc(NC(=O)N2CCCc3cc(CN4CCN(C)CC4=O)c(C=O)nc32)ncc1C#N"
  assigned-class: "Criterion not met"
- compound: "CC(=O)N(C)Cc1cc2c(nc1C=O)N(C(=O)Nc1cc(OCC(C)C)c(C#N)cn1)CCC2"
  assigned-class: "Criterion met"
- compound: "N#Cc1cnc(NC(=O)N2CCCc3cc(C(F)F)c(C=O)nc32)cc1Cl"
  assigned-class: "Criterion not met"
- compound: "COCCNc1cc(NC(=O)N2CCCc3cc(CN4CCC(N(C)C)C4)c(C=O)nc32)ncc1C#N (centres unmarked)"
  assigned-class: "Criterion not met"
- compound: "COC[C@H](C)Oc1cc(NC(=O)N2CCCc3cc(CN4CCCC4=O)c(C=O)nc32)ncc1C#N"
  assigned-class: "Criterion met"
- compound: "COCCNc1cc(NC(=O)N2CCCc3cc(CN(C)C(C)=O)c(C=O)nc32)ncc1C(F)(F)F"
  assigned-class: "Criterion not met"
- compound: "COc1nc(NC(=O)N2CCCc3cc(CN4CCN(C)CC4=O)c(C=O)nc32)ncc1C#N"
  assigned-class: "Criterion not met"
- compound: "COCCNc1cc(NC(=O)N2CCCc3cc(CN4CCCC4=O)c(C=O)nc32)ncc1C#N"
  assigned-class: "Criterion met"
- compound: "COC[C@H](C)Nc1cc(NC(=O)N2CCCc3cc(CN(C)C(C)=O)c(C=O)nc32)ncc1C#N"
  assigned-class: "Criterion met"
- compound: "COC[C@@H](C)Nc1cc(NC(=O)N2CCCc3cc(CN4CCCC4=O)c(C=O)nc32)ncc1C#N"
  assigned-class: "Criterion met"
